Source listed as paper PMC11880201.

# TESTED_TARGET: INSM1 ZF1-ZF5 (human, UniProt Q01101 257-497)
# Sequence (Q01101 257-497): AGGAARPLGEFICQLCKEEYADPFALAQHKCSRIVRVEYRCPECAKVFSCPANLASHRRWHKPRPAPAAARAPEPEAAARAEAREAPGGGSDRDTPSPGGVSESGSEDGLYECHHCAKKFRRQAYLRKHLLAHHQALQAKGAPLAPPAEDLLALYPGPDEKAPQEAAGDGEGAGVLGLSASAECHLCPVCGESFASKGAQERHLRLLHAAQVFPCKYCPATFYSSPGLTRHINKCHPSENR
# ASSAY_PROTOCOL: EMSA
RESULT_TYPE: pKd
API: returns pKd as number; meaning -log10 of concentration in mol/L.

IN: Which pKd is listed for MCAT (FAM) (dsDNA) DNA 1: AGTGGAATGTGC DNA 2: GCACATTCCACT ?
OUT: 5.08
